# test.target: soluble HLA-A*0201 (sHLA-A*0201) (human)
# assay.text: FP equilibrium titration with variable pFITC, 425 nM sHLA-A*0201, 20 C
pKd: −log10 of the molar value. Ends that are not written are not given here.

{"binder": "LVFGKEVVEV (not fully specified) [A*0201/P4, FITC-labeled peptide …]", "pKd": 7.66}
